Molecular target: Muscarinic acetylcholine receptor M3 (Rattus norvegicus) (UniProt P08483)
Sequence (P08483 whole entry, looked up): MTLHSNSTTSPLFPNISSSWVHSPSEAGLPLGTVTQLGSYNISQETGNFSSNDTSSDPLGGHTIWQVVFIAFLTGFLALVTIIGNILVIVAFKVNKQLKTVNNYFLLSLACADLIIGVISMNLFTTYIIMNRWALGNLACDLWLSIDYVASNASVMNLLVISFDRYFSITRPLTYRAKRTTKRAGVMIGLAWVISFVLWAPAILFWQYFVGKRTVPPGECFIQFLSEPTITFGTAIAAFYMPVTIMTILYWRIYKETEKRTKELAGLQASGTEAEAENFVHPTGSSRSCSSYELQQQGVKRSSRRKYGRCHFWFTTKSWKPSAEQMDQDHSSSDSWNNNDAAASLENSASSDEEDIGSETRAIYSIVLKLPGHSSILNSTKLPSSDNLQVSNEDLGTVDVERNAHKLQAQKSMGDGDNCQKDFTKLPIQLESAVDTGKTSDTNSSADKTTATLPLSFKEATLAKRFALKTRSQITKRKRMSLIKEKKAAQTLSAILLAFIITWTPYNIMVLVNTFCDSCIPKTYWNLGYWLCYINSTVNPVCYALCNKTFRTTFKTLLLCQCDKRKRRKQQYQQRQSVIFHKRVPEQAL
Test: In vitro antimuscarinic activity against the M3 muscarinic receptor subtype in rat ileum
Assay type: tissue-based
PARAMETER: pKb
Just the number, please.

Examples from the recorded data:
| COMPOUND | pKb |
| --- | --- |
| O=C(OCc1ccc(CN2CCC(O)CC2)o1)C(c1ccccc1)C1CCCCC1 (centres undefined) | 6.5 |
| CN(C)Cc1ccc(COC(=O)C2c3ccccc3-c3ccccc32)o1 | 5.8 |
| O=C(OCc1ccc(CN2CCOCC2)o1)C(c1ccccc1)C1CCCCC1 (centres undefined) | 5.5 |

Moving on to another compound below.
Looking up CC(C)N(C)Cc1ccc(COC(=O)C(c2ccccc2)C2CCCCC2)o1 (centres undefined) , I found its pKb recorded as 7
